Target: Methionine aminopeptidase (Escherichia coli K-12, UniProt P0AE18)
Sequence (P0AE18 whole entry): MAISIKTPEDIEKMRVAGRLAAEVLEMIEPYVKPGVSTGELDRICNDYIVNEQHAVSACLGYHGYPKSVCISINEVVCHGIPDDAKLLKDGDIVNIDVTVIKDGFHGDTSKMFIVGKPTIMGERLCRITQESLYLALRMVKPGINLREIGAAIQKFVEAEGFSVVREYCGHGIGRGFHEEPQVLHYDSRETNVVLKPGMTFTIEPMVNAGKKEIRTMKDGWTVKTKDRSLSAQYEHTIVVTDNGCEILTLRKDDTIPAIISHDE
pIC50: −log10 of the molar value.
METRIC NAME: pIC50

Req: Output pIC50 of COC(C)Cc1scnc1C(=O)Nc1nccs1 (configuration not stated)
Resp: 7.13

Req: Output pIC50 of O=C(CN1CCOCC1)Nc1scnc1C(=O)Nc1nccs1
Resp: 6.96

Req: # return recorded pIC50 for input CCC(=O)Nc1scnc1C(=O)Nc1nccs1
Resp: 7.09

Req: Read off the recorded pIC50 for CC(C)Cc1scnc1C(=O)Nc1nccs1
Resp: 7.00

Req: Quote pIC50 reported for O=C(Nc1nccs1)c1cscn1 please.
Resp: 6.96

[A] O=C(O)CC(=O)Nc1scnc1C(=O)Nc1nccs1
[B] O=C(CN1CCCCC1)Nc1scnc1C(=O)Nc1nccs1
Req: From the items above, decide which of A and B has the lower pIC50 reading. Your answer should be the label attached to the chosen record.
Resp: B
